protocol-description: PK in mice plasma
Format: in vivo
condition-parameters: mouse; Table 39; PO plasma, 3.18 mg/kg; read-out: Vz/F
readout: Vd/F
Answer format reminder: number followed by unit.

Look up Vd/F for this compound: COCCN[C@H]1CS(=O)(=O)C[C@@H]1S(=O)(=O)c1ccc(Cl)cc1 [Compound D136] 22.5 L/kg

###

experimental-system: NR2F6 (Homo sapiens, UniProt P10588)
Construct: expressed in transfected cells; also transient transfection
Sequence (P10588 whole entry): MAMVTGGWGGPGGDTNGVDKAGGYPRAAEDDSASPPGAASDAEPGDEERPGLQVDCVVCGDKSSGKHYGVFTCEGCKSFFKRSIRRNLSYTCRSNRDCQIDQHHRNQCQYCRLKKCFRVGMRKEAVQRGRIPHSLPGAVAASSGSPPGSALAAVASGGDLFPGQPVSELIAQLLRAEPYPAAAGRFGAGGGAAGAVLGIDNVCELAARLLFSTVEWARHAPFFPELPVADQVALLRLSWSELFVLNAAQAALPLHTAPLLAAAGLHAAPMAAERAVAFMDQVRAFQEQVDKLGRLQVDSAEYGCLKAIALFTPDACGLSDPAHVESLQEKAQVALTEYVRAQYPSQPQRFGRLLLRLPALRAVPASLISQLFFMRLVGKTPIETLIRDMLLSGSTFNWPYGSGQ
protocol-description: NR2F6 agonist screening, Firefly signal cmpd/DMSO
Format: cell-based
condition-parameters: 10 uM; F4
readout: Firefly F4, cmpd/DMSO (mean)
# print the numeric value only

# compound, reported-value
rows = [
    ("C[C@@H]1C[C@H](C)CN([C@H]2CS(=O)(=O)C[C@@H]2S(=O)(=O)c2cccs2)C1 [Compound D109]", 4.2),
    ("O=S1(=O)C[C@H](NC2CCCCCC2)[C@@H](S(=O)(=O)c2ccc(Cl)cc2)C1 [Compound D130]", 4.0),
    ("O=S1(=O)C[C@H](NCc2ccncc2)[C@@H](S(=O)(=O)c2cccs2)C1 [Compound D108]", 1.3),
    ("O=S1(=O)C[C@H](NC2CCCC2)[C@@H](S(=O)(=O)c2ccc(F)cc2)C1 [Compound D114]", 2.4),
    ("CCCCN(C)[C@H]1CS(=O)(=O)C[C@@H]1S(=O)(=O)c1ccc(Cl)cc1 [Compound D132]", 5.5),
]

Pending compound:
Look up Firefly F4, cmpd/DMSO (mean) for this compound: CC(C)CCN[C@H]1CS(=O)(=O)C[C@@H]1S(=O)(=O)c1ccc(Cl)cc1 [Compound D131] 4.1
